TEST SUMMARY: Bidirectional transepithelial transport across Caco-2 cell monolayers
Format: in vitro ADME, human
PROTOCOL CONDITIONS: human, Caco-2, pH 6.8, Papp(B–A), rhodamine 123 5 µM; pH 6.8/7.4; control (no inhibitor)
MEASUREMENT NAME: Papp B→A at 3 hr, 5 µM (×10⁻⁶ cm/s)
Just the number in ×10⁻⁶ cm/s, nothing appended.

Req: For the compound shown here, COC(=O)c1ccccc1-c1c2ccc(=N)cc-2oc2cc(N)ccc12 [rhodamine 123] , give the reported Papp B→A at 3 hr, 5 µM.
Resp: 6.4

* * *

Tested on: P-gp
TEST SUMMARY: Bidirectional transepithelial transport across Caco-2 cell monolayers
Type: in vitro ADME, human
PROTOCOL CONDITIONS: human, Caco-2, pH 6.8, with cyclosporine A 10 µM, Papp(A–B), rhodamine 123 5 µM; pH 6.8/7.4; + cyclosporine A 10 µM
MEASUREMENT NAME: Papp A→B at 3 h, 5 µM
Respond with the figure and its unit, in that order.

Req: For the compound shown here, `COC(=O)c1ccccc1-c1c2ccc(=N)cc-2oc2cc(N)ccc12` , give the reported Papp A→B at 3 h, 5 µM.
Resp: 7.8 ×10⁻⁶ cm/s

* * *

TEST SUMMARY: Bidirectional transepithelial transport across Caco-2 cell monolayers
Assay type: in vitro ADME, human
PROTOCOL CONDITIONS: human, Caco-2, pH 6.8, Papp(A–B), rhodamine 123 5 µM; pH 6.8/7.4; control (no inhibitor)
MEASUREMENT NAME: Papp A→B at 3 h, 5 µM (×10⁻⁶ cm/s)
Just the number in ×10⁻⁶ cm/s, nothing appended.

Req: For the compound shown here, `COC(=O)c1ccccc1-c1c2ccc(=N)cc-2oc2cc(N)ccc12` , give the reported Papp A→B at 3 h, 5 µM.
Resp: 4.8

All figures here come from paper PMC2774482.
